molecular target: ScMyo5; test: SPOT peptide array binding signal intensity (averaged, normalized) (arbitrary units (background-subtracted, floor 0; scale differs between SH3 domains)); higher = stronger binding of the SH3 domain to the peptide
measurement_label: SPOT peptide array binding signal intensity
The reply should be a number, written without any unit.

binder	measured
IPSRPAPKPPSSASA	1990
GPPPPLPPPLFPSSS	901
VQKRKLPLPGSIASA	1.5
VPVAPPPPPASLGQS	91
FIRKRAPTPPAPSRS	20.8

Lab book: SPOT peptide array binding signal intensity of GQYRRTIVIPRRFFT noted as 10

For record HKVLRPFLLRRLKKD the listed SPOT peptide array binding signal intensity is 2.5

Summary for this binder, VNIPSPSSSPPPIPK : SPOT peptide array binding signal intensity is 2780

So, GAGERPRLVPRPINV ? Its SPOT peptide array binding signal intensity was 4

// SPOT peptide array binding signal intensity lookup, binder = FTLPPPPPPPGLDEL , result: 1880

// recorded SPOT peptide array binding signal intensity for IKKRNKIRLPSGSPE : 6

The binder identified as SRYRRPLTLLLLKPF registered its SPOT peptide array binding signal intensity at 0.5

binder RVRKTHVPASKRPSG , SPOT peptide array binding signal intensity observed: 1.5

According to the records, this binder RNNRPVPPPPPMRTT displays SPOT peptide array binding signal intensity of 156

Sample NPNRRAPRRPLSTQH ; SPOT peptide array binding signal intensity observed: 8.75

Looking up RRRRRPHRIERPLSN , I see its SPOT peptide array binding signal intensity listed as 3.25

SPOT peptide array binding signal intensity in this record for GTIARPLFLVVLFFI : 1

Value of measured SPOT peptide array binding signal intensity for the entry QPQRTAPKPPISAPR : 613

Quick note, SPOT peptide array binding signal intensity for RVTRKRPREPKSTND landed at 4.75

Noted for VTHRLRISIPGITGR : its SPOT peptide array binding signal intensity reads 1.75

Form: binder = GDHPKGPPPPPPPDE ; SPOT peptide array binding signal intensity = 1300
